# Test system: Ancylostoma caninum
# Experiment: Ratio of EC50 for Ancylostoma caninum isolate PR to […] by force transduction assay
# Type: functional
Recorded Metric: Ratio EC50

Would you please give the reported Ratio EC50 of C[N+](C)(CCOc1ccccc1)Cc1ccccc1.O=C([O-])c1cc2ccccc2cc1O [BEPHENIUM HYDROXYNAPHTHOATE] with Ancylostoma caninum?
0.97

Would you please give the reported Ratio EC50 of `CN1CCC[C@H]1c1cccnc1` with Ancylostoma caninum?
2.1

Would you please give the reported Ratio EC50 of CN1CCCN=C1/C=C/c1cccs1.O=C(O)c1cc2ccccc2c(Cc2c(O)c(C(=O)O)cc3ccccc23)c1O [PYRANTEL PAMOATE] with Ancylostoma caninum?
3.1

Okay, now this compound:
Would you please give the reported Ratio EC50 of Cl.c1ccc([C@H]2CN3CCSC3=N2)cc1 [LEVAMISOLE HYDROCHLORIDE] with Ancylostoma caninum?
2

Values from ChEMBL document CHEMBL1671630
